Target: SIK2 (Homo sapiens (Human))
Assay: SIK2 Enzymatic Assay Version 2 (High ATP)
Assay type: biochemical
Conditions: 3 mM ATP and 200 μM HDAC5tide final, ADP-Glo Max luminescence
property.measured: pIC50
The read-out pIC50 is expressed as -log10 of concentration in moles per litre.

Some entries whose results are on file:
C[C@H]1[C@H](OCc2cnn(C)c2-c2ccn3nc(NC(=O)C4CC4)cc3c2)CN1C [Example 190]    7.58
Cc1onc(OC[C@@]23CN[C@@H](CO2)C3)c1-c1ccn2nc(NC(=O)C3CC3)cc2c1 [Example 201]    7.38
CCN1CC[C@@H]1COc1cnn(C)c1-c1ccn2nc(Nc3ccc(OC)cn3)cc2c1 [Example 166]    8.74
Cc1cc(C(=O)NCC(C)(C)O)cc(Nc2cc3cc(-c4c(OC[C@H]5CCN5C)cnn4C)ccn3n2)n1 [Example 111]    8.89
Cc1cc(Nc2cc3cc(-c4c(OC[C@@H]5CCN(C)C5=O)cnn4C)ccn3n2)nc(C)n1 (single isomer, unassigned) [Example 34]    8.04

--- query ---
Short answer please: pIC50, SIK2 (Homo sapiens (Human)), entry Cc1cc(Nc2cc3cc(-c4c(OC[C@H]5CCN5C)cnn4C(F)F)ccn3n2)nc(C)n1 [Example 140] 8.92

----------
Biological target: SIK2 (Homo sapiens (Human))
Assay: SIK2 Enzymatic Assay Version 2 (High ATP)
Format: biochemical
Conditions: 3 mM ATP and 200 μM HDAC5tide final, ADP-Glo Max luminescence
Attribute: IC50
Express your answer in nM, writing the number without its unit.

CN1CCC1(C)COc1cnn(C)c1-c1ccn2nc(NC(=O)C3CC3)cc2c1 (racemic) [Example 54]    178
Cc1cc(Nc2cc3cc(-c4c(OC[C@@H](O)C5CCC5)cnn4C)ccn3n2)nc(C)n1 [Example 302]    28.3
Cn1ncc(OC[C@H]2CCN2CC(C)(C)C#N)c1-c1ccn2nc(NC(=O)C3CC3)cc2c1 [Example 255]    51.8
CCN1CC[C@@H]1COc1cnn(C(F)F)c1-c1ccn2nc(Nc3cnc(C)cn3)cc2c1 [Example 264]    7.7
Cc1ncc(Nc2cc3cc(-c4c(OC[C@@H]5CCN5C)cnn4C)ccn3n2)nc1C [Example 138]    40.3

I would be grateful if you could share the reported IC50 for Cc1cc(Nc2cc3cc(-c4c(O[C@@H]5CN[C@H](C(F)F)C5)noc4C)ccn3n2)nc(C)n1 [Example 327] . 42.8

I would be grateful if you could share the reported IC50 for Cc1cc(Nc2cc3cc(-c4c(OC[C@H]5OCC[C@@H]5O)cnn4C)ccn3n2)nc(C)n1 [Example 300] . 10.8

I would be grateful if you could share the reported IC50 for CN1CC[C@H](Oc2cnn(C)c2-c2ccn3nc(Nc4ccn5nccc5n4)cc3c2)C1 [Example 268] . 36.5

----------
Attribute: pIC50
Target: SIK2 (Homo sapiens (Human), UniProt Q9H0K1)
Sequence (Q9H0K1 whole entry, species assumed): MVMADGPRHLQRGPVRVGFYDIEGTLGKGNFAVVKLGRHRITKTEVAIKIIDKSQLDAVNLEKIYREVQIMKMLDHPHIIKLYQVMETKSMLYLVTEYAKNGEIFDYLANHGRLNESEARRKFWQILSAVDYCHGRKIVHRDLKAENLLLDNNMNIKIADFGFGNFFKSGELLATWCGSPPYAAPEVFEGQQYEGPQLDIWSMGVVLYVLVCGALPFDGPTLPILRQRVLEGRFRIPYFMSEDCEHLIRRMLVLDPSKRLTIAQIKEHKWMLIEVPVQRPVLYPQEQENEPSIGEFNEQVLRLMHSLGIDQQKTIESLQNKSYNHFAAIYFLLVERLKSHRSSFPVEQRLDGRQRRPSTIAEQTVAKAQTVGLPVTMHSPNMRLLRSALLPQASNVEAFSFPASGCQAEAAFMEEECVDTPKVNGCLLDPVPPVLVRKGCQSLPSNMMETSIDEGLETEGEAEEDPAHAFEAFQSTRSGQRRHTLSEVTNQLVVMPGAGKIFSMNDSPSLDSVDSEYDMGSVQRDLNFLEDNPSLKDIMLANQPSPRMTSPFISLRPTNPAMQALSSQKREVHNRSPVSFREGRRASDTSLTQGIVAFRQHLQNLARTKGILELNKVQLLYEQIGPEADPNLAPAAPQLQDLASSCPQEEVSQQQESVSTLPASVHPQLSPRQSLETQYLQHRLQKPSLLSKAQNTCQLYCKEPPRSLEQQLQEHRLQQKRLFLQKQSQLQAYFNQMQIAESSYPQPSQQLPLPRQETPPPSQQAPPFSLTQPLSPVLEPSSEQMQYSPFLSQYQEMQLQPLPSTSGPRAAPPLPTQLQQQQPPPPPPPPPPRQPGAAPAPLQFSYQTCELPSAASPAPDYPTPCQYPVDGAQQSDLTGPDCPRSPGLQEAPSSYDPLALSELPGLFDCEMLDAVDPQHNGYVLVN
Assay: SIK2 Enzymatic Assay Version 2 (High ATP)
Type: biochemical
Settings: 3 mM ATP and 200 μM HDAC5tide final, ADP-Glo Max luminescence
The read-out pIC50 is expressed as -log10 of concentration in moles per litre.

I would be grateful if you could share the reported pIC50 for CN1CC[C@H](Oc2cnn(C)c2-c2ccn3nc(Nc4ccnc(C5CC5)n4)cc3c2)C1 [Example 281] . 7.54

----------
Molecular target: SIK2 (Homo sapiens (Human), UniProt Q9H0K1)
Assay: SIK2 Enzymatic Assay Version 2 (High ATP)
Format: biochemical
Conditions: 3 mM ATP and 200 μM HDAC5tide final, ADP-Glo Max luminescence
property.measured: pIC50
The read-out pIC50 is expressed as -log10 of concentration in moles per litre.

Cc1cc(Nc2cc3cc(-c4c(CO[C@@H]5CN(C)C[C@H]5C)cnn4C)ccn3n2)nc(C)n1 (relative stereo) [Example 366]    8.80
Cc1cc(Nc2cc3cc(-c4c(OC[C@@H](O)C5(C)CC5)cnn4C)ccn3n2)nc(C)n1 [Example 301]    7.82

I would be grateful if you could share the reported pIC50 for Cc1cc(Nc2cc3cc(-c4c(OC[C@]5(O)CCOC5)cnn4C)ccn3n2)nc(C)n1 (single isomer, unassigned) [Example 439] . 6.76

I would be grateful if you could share the reported pIC50 for COCCNC(=O)c1cnc(Nc2cc3cc(-c4c(OC[C@H]5CCN5C)cnn4C)ccn3n2)cn1 [Example 115] . 8.05

I would be grateful if you could share the reported pIC50 for CN1CC[C@H](Oc2cnn(C)c2-c2ccn3nc(Nc4ccnc(C(F)(F)F)n4)cc3c2)C1 [Example 458] . 6.78

I would be grateful if you could share the reported pIC50 for CO[C@H]1CNC[C@H]1Oc1noc(C)c1-c1ccn2nc(Nc3cc(C)c(C)nn3)cc2c1 [Example 95] . 8.28

I would be grateful if you could share the reported pIC50 for CC(C)N1CC[C@@H]1COc1cnn(C)c1-c1ccn2nc(NC(=O)C3CC3)cc2c1 [Example 53] . 7.17

I would be grateful if you could share the reported pIC50 for CN1CC[C@@H]1COc1cnn(C)c1-c1ccn2nc(NC(=O)[C@@H]3C[C@@H]3C#N)cc2c1 [Example 475] . 7.28

I would be grateful if you could share the reported pIC50 for COC1(COc2cnn(C)c2-c2ccn3nc(NC(=O)C4CC4)cc3c2)CN(C)C1 [Example 406] . 6.76

I would be grateful if you could share the reported pIC50 for Cn1ncc(OC[C@H]2CCN2C[C@@H]2CCCO2)c1-c1ccn2nc(NC(=O)C3CC3)cc2c1 (relative stereo) [Example 353] . 7.17

I would be grateful if you could share the reported pIC50 for Cc1cc(Nc2cc3cc(-c4c(OC[C@H]5CCN5C)cnn4C(F)F)ccn3n2)nn(C)c1=O [Example 33] . 8.89

----------
Target: SIK2 (Homo sapiens (Human), UniProt Q9H0K1)
Test: SIK2 Enzymatic Assay Version 2 (High ATP)
Assay type: biochemical
Settings: 3 mM ATP and 200 μM HDAC5tide final, ADP-Glo Max luminescence
property.measured: IC50 (µM)
Express your answer in µM, writing the number without its unit.

CO[C@@H]1CNC[C@H]1COc1cnn(C)c1-c1ccn2nc(NC(=O)C3CC3)cc2c1 [Example 422]    0.0969
Cn1ncc(OCC2(N)COC2)c1-c1ccn2nc(NC(=O)C3CC3)cc2c1 [Example 402]    0.0924

I would be grateful if you could share the reported IC50 for CCN1CC[C@@H]1COc1cnn(C)c1-c1ccn2nc(NC(=O)[C@@H]3C[C@H]3C)cc2c1 [Example 66] . 0.0014

----------
Attribute: pIC50
Biological target: SIK2 (Homo sapiens (Human), UniProt Q9H0K1)
Experiment: SIK2 Enzymatic Assay Version 2 (High ATP)
Assay type: biochemical
Details: 3 mM ATP and 200 μM HDAC5tide final, ADP-Glo Max luminescence
The read-out pIC50 is expressed as -log10 of concentration in moles per litre.

Some entries whose results are on file:
Cn1ccc(CN2CC[C@@H]2COc2cnn(C)c2-c2ccn3nc(NC(=O)C4CC4)cc3c2)n1 [Example 430]    7.01
CN1C[C@@H](C(F)(F)F)[C@@H]1COc1cnn(C)c1-c1ccn2nc(NC(=O)C3CC3)cc2c1 [Example 10]    6.01
Cc1cnc(Nc2cc3cc(-c4c(O[C@@H]5CN[C@H](C)C5)noc4C)ccn3n2)cn1 [Example 322]    7.33

--- query ---
I would be grateful if you could share the reported pIC50 for CN1CC[C@H](Oc2cnn(C)c2-c2ccn3nc(Nc4ccc(C(F)(F)F)cn4)cc3c2)C1 [Example 339] . 7.16

----------
Attribute: IC50
Target: UniProtKB Q9H0K1
Assay: SIK2 Enzymatic Assay Version 2 (High ATP)
Format: biochemical
Conditions: 3 mM ATP and 200 μM HDAC5tide final, ADP-Glo Max luminescence
Express your answer in nM, writing the number without its unit.

I would be grateful if you could share the reported IC50 for Cc1cc(Nc2cn3cc(-c4c(OC[C@H]5CCN5C)cnn4C)ccc3n2)nc(C)n1 . 1.1

----------
Target: SIK2 (Homo sapiens (Human), UniProt Q9H0K1)
Assay: SIK2 Enzymatic Assay Version 2 (High ATP)
Assay type: biochemical
Settings: 3 mM ATP and 200 μM HDAC5tide final, ADP-Glo Max luminescence
Attribute: IC50
Express your answer in nM, writing the number without its unit.

Cc1cc(Nc2cc3cc(-c4c(O[C@@H]5COC[C@@H]5C)cnn4C)ccn3n2)nc(C)n1 (single isomer, unassigned)    78.9
Cc1cc(Nc2cc3cc(-c4c(OCC(N)C56CC(C5)C6)cnn4C)ccn3n2)nc(C)n1 (stereo not drawn)    4

--- query ---
I would be grateful if you could share the reported IC50 for C[C@@H]1CN(C)C[C@@H]1OCc1cnn(C)c1-c1ccn2nc(NC(=O)C3CC3)cc2c1 (single isomer, unassigned) . 28.1
